All figures here come from patent US20220056142A1.

Biological target: T1, N-terminal ECD protein of mouse FGFR3 with a terminal avidin tag (mouse, UniProt Q61851 21-369)
T1 construct: extracellular domain; not shown: terminal avidin tag
T1 sequence (looked up): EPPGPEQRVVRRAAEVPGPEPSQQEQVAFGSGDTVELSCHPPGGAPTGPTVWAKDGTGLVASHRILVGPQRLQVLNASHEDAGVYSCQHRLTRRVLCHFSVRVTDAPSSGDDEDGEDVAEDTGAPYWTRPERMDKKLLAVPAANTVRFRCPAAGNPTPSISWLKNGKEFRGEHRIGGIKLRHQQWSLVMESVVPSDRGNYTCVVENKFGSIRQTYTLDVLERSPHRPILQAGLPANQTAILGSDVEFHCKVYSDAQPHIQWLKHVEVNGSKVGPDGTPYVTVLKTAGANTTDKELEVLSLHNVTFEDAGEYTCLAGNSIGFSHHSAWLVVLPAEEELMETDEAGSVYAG
Experiment: SPR (Biacore), FGFR3 ECD immobilised on chip, antibody injected, 1:1 fit
pKd: −log10 of the molar value.
Property measured: pKd

Binder	Property measured	Measured number
KE35 (antibody, V domains shown, Mouse monoclonal antibody from a hybridoma; also called anti-FGFR3 antibody KE35) VH: EVQLQQSGPELVKPGASVKMSCKASGYTFTDYNMHWVKQSHGKSLEWIGYINPNNGGTRYNQKFKGKATLTVNKSSSTAYMELRSLTSEDSAVYYCARERDYDGAMDYWGQGTSVTVSS VL: DIQMTQSPSSLSASLGGKVTITCKASQDINKFIAWYQHKPGKGPRLLIHYTSTLQPGIPSRFSGSGSGRDYSFSISNLEPEDIATYYCLQYDNLLWTFGGGTKLEIK	pKd	8.72
KC18 (antibody, V domains shown, Mouse monoclonal antibody from a hybridoma; also called anti-FGFR3 antibody KC18; KC18 mouse antibody) VH: QVQLQQSGAELVRPGASVTLSCKASGDTFTDFEIHWVKQTPVHGLEWIGDIDPETGGTAYNQKFRGRAMLTADRSSSTAYMELRSLTSEDSAVYYCTRTYDGYPYAMDYWGQGTSVTVSS VL: DIVMSQSPSSLAVSVGEKVTMSCKSSQSLLYSNNQKNYLAWYQQKPGQSPKLLIYWASTRESGVPDRFTGSGSGTDFTLTISSVKAEDLAVYYCQQYYSYRTFGGGTKLEIK	pKd	8.20
